# Test system: Hepatotoxicity
# test.summary: FDA HLAED, serum glutamic oxaloacetic transaminase (SGOT) increase
# test.context: human

compound	SGOT Increase - Index Value
Cc1nccn1CC1CCc2c(c3ccccc3n2C)C1=O (centres undefined)	1.1
O=C1CC[C@@]2(O)[C@H]3Cc4ccc(O)c5c4[C@@]2(CCN3CC2CC2)[C@H]1O5 [NALTREXONE]	0
CC(NCCc1ccc(O)cc1)C(O)c1ccc(O)cc1 (centres undefined)	4.2
CCCCC[C@H](O)/C=C/[C@H]1[C@H](O)CC(=O)[C@@H]1CCCCCCC(=O)O	0

----------
# Test system: Hepatotoxicity
# test.summary: FDA HLAED, lactate dehydrogenase (LDH) increase
# test.context: human

molecule	LDH Increase - Number of Reports
O=[N+]([O-])O[C@@H]1CO[C@H]2[C@@H]1OC[C@@H]2O [ISOSORBIDE MONONITRATE]	< 4
Nc1nnc(-c2cccc(Cl)c2Cl)c(N)n1 [LAMOTRIGINE]	>= 4
C[C@@H](CN1CC(=O)NC(=O)C1)N1CC(=O)NC(=O)C1 [DEXRAZOXANE]	< 4
CCC1(c2ccc(N)cc2)CCC(=O)NC1=O (stereo unspecified) [AMINOGLUTETHIMIDE]	< 4
O=C1C(O)=C([C@H]2CC[C@H](c3ccc(Cl)cc3)CC2)C(=O)c2ccccc21 [ATOVAQUONE]	< 4
COc1c(C)c2c(c(O)c1C/C=C(\C)CCC(=O)O)C(=O)OC2 [MYCOPHENOLIC ACID]	< 4
CCN[C@@H]1C[C@H](N)[C@@H](O[C@H]2OC(CN)=CC[C@H]2N)[C@H](O)[C@H]1O[C@H]1OC[C@](C)(O)[C@H](NC)[C@H]1O [NETILMICIN]	< 4
CO/N=C(\C(=O)N[C@@H]1C(=O)N2C(C(=O)O)=C(COC(N)=O)CS[C@H]12)c1ccco1 [CEFUROXIME]	< 4
CN1CCN2c3ncccc3Cc3ccccc3C2C1 (stereo unspecified) [MIRTAZAPINE]	< 4
C[C@@H]1O[C@@H]1P(=O)(O)O [FOSFOMYCIN]	< 4
CO[C@H]1/C=C/O[C@@]2(C)Oc3c(C)c(O)c4c(O)c(c(/C=N/N5CCN(C)CC5)c(O)c4c3C2=O)NC(=O)/C(C)=C\C=C\[C@H](C)[C@H](O)[C@@H](C)[C@@H](O)[C@@H](C)[C@H](OC(C)=O)[C@@H]1C [RIFAMPIN]	>= 4
CC(C)c1nc(CN(C)C(=O)N[C@H](C(=O)N[C@@H](Cc2ccccc2)C[C@H](O)[C@H](Cc2ccccc2)NC(=O)OCc2cncs2)C(C)C)cs1 [RITONAVIR]	>= 4
Nc1cc(-c2ccncc2)c[nH]c1=O [INAMRINONE]	< 4
COc1cc([C@@H]2c3cc4c(cc3[C@@H](O[C@@H]3O[C@@H]5CO[C@@H](c6cccs6)O[C@H]5[C@H](O)[C@H]3O)[C@H]3COC(=O)[C@H]23)OCO4)cc(OC)c1O [TENIPOSIDE]	< 4
CC(CCc1ccc(O)cc1)NCCc1ccc(O)c(O)c1 (stereo unspecified) [DOBUTAMINE]	< 4
Cc1c(OCC(F)(F)F)ccnc1C[S+]([O-])c1nc2ccccc2[nH]1 (stereo unspecified) [LANSOPRAZOLE]	< 4
CCC(=O)O[C@H]1CC[C@H]2[C@@H]3CCC4=CC(=O)CC[C@]4(C)[C@H]3CC[C@]12C [TESTOSTERONE PROPIONATE]	< 4
C[C@H](CS)C(=O)N1CCC[C@H]1C(=O)O [CAPTOPRIL]	< 4
CCOC(=O)[C@H](CCc1ccccc1)N[C@@H](C)C(=O)N1[C@H](C(=O)O)C[C@H]2CCCC[C@@H]21 [TRANDOLAPRIL]	< 4
CCc1cccc2c3c([nH]c12)C(CC)(CC(=O)O)OCC3 (stereo unspecified) [ETODOLAC]	>= 4
Cc1cc(C2CCCCC2)n(O)c(=O)c1 [CICLOPIROX]	< 4
Cn1cc([S+](C)[O-])c(=O)c2ccc(F)cc21 (stereo unspecified) [FLOSEQUINAN]	>= 4
CC(C)c1cccc(C(C)C)c1O [PROPOFOL]	>= 4
CCCCc1nc(Cl)c(CO)n1Cc1ccc(-c2ccccc2-c2nn[nH]n2)cc1 [LOSARTAN]	< 4
CN(Cc1cnc2nc(N)nc(N)c2n1)c1ccc(C(=O)N[C@@H](CCC(=O)O)C(=O)O)cc1 [METHOTREXATE]	>= 4
OC[C@H]1O[C@@H](n2cnc3c2NC=NC[C@H]3O)C[C@@H]1O [PENTOSTATIN]	< 4

These data points were gathered from ChEMBL document CHEMBL1697781.
